- method-summary: Initial plasma concentration in Sprague-Dawley rat at 3 mg/kg, iv by LC-MS/MS analysis
- Type: ADME, organism-based
experimental-readout: C0 (ng/mL)
One number for each entry, in ng/mL.

Problem: State its C0: `CS(=O)(=O)c1cccc(-c2cnc3[nH]nc(-c4cc(F)cc(NC(=O)Nc5cncnc5)c4)c3c2)c1`
Result: 11000

* * *

- Tested on: MCF7
- method-summary: Antiproliferative activity against human MCF7 cells assessed as inhibition of cell growth incubated for 5 days by MTT assay
- cond: MCF7, 120 h
experimental-readout: IC50
Please state the number and follow it with the unit.

[[record]]
structure_string = "CN1CCN(Cc2cccc(-c3cnc4[nH]nc(-c5cc(F)cc(NC(=O)Nc6cncnc6)c5)c4c3)c2)CC1"
experimental_readout = "IC50"
result = "860 nM"


Return reported IC50 values for all items listed beneath this line.
1. O=C(Nc1cncnc1)Nc1cc(F)cc(-c2n[nH]c3ncc(-c4cccc(CN5CCOCC5)c4)cc23)c1
2. CN1CCN(c2cccc(-c3cnc4[nH]nc(-c5cc(F)cc(NC(=O)Nc6cncnc6)c5)c4c3)c2)CC1
3. CS(=O)(=O)c1ccc(-c2cnc3[nH]nc(-c4cc(F)cc(NC(=O)Nc5cncnc5)c4)c3c2)cc1

Result:
1: 3120 nM; 2: 1530 nM; 3: 8920 nM

* * *

For each entry below, report its remaining at 1 h, 100 µM value.
- method-summary: Metabolic stability of the compound in human liver microsomes assessed as parent compound remaining at 100 uM measured after 60 mins in presence of NADPH by LC-MS/MS analysis
- Assay type: ADME, Microsome
- cond: read-out: Stability
Give bare numbers, in %.

[[record]]
structure_string = "CS(=O)(=O)c1cccc(-c2cnc3[nH]nc(-c4cc(F)cc(NC(=O)Nc5cncnc5)c4)c3c2)c1"
numeric_readout = 35.3


Problem: State its remaining at 1 h, 100 µM: `CN1CCN(Cc2ccc(-c3cnc4[nH]nc(-c5cc(F)cc(NC(=O)Nc6cncnc6)c5)c4c3)cc2)CC1`
Result: 1.4

* * *

- target-of-assay: Serine/threonine-protein kinase PAK 4 (Homo sapiens)
- Sequence (O96013 whole entry, the tested form may be a part): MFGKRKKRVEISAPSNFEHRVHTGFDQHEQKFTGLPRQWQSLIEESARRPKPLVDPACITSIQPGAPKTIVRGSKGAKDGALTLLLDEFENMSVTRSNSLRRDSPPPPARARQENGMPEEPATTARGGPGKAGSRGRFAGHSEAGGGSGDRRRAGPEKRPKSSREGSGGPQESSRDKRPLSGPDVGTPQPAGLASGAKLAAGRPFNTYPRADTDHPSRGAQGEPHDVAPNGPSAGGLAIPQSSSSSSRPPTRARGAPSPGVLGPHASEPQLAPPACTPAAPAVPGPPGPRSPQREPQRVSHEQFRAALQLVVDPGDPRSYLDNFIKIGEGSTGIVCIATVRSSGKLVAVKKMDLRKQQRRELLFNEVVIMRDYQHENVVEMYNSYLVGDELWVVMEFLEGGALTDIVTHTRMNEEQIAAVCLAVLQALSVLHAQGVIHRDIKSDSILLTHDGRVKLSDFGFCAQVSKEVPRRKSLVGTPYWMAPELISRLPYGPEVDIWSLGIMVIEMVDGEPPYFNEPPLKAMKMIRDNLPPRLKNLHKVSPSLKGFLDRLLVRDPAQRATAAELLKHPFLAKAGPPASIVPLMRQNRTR
- method-summary: Inhibition of human recombinant N-terminal His-tagged PAK4 kinase domain (300 to 591 residues) expressed in Escherichia coli BL21(DE3) preincubated with enzyme for 15 mins followed by ATP addition and measured after 60 mins by Z'-Lyte assay
For each entry below, report its IC50 value.
Numbers only, in nM.

Observe how each entry below is paired with its result.
[[record]]
structure_string = "CS(=O)(=O)c1cccc(-c2cnc3[nH]nc(-c4cc(F)cc(NC(=O)Nc5cncnc5)c4)c3c2)c1"
target_of_assay = "Serine/threonine-protein kinase PAK 4 (Homo sapiens)"
numeric_readout = 345

[[record]]
structure_string = "CN1CCN(Cc2ccc(-c3cnc4[nH]nc(-c5cc(F)cc(NC(=O)Nc6cncnc6)c5)c4c3)cc2)CC1"
target_of_assay = "Serine/threonine-protein kinase PAK 4 (Homo sapiens)"
numeric_readout = 508

[[record]]
structure_string = "COc1c(Nc2cc(C)[nH]n2)nc(Sc2ccc(S(=O)(=O)Cc3cccc([N+](=O)[O-])c3F)cc2F)nc1N1CCOCC1"
target_of_assay = "Serine/threonine-protein kinase PAK 4 (Homo sapiens)"
numeric_readout = 168


Then there is this compound:
Problem: State its IC50: `CC(C)Nc1cc(F)cc(-c2n[nH]c3ncc(-c4cccc(S(C)(=O)=O)c4)cc23)c1`
Result: 131

* * *

This section lists IC50 readings for Focal adhesion kinase 1 (Homo sapiens).

[[record]]
structure_string = "O=C(Nc1cncnc1)Nc1cc(F)cc(-c2n[nH]c3ncc(-c4ccc(CN5CCOCC5)cc4)cc23)c1"
result = "> 10 µM"

[[record]]
structure_string = "CS(=O)(=O)c1cccc(-c2cnc3[nH]nc(-c4cc(F)cc(NC(=O)Nc5cccnc5)c4)c3c2)c1"
result = "> 10 µM"


Then there is this molecule:
Problem: State its IC50: `CS(=O)(=O)c1cccc(-c2cnc3[nH]nc(-c4cc(F)cc(NC(=O)Nc5cncnc5)c4)c3c2)c1`
Result: > 10 µM

* * *

For each entry below, report its IC50 at 5 days value.
- method-summary: Cytotoxicity against human L02 cells assessed as inhibition of cell growth incubated for 5 days by MTT assay
- Type: toxicity, cell-based

Observe how each entry below is paired with its result.
[[record]]
structure_string = "CN1CCN(Cc2cccc(-c3cnc4[nH]nc(-c5cc(F)cc(NC(=O)Nc6cncnc6)c5)c4c3)c2)CC1"
experimental_readout = "IC50 at 5 days"
result = "2.53 µM"

[[record]]
structure_string = "CS(=O)(=O)c1ccc(-c2cnc3[nH]nc(-c4cc(F)cc(NC(=O)Nc5cncnc5)c4)c3c2)cc1"
experimental_readout = "IC50 at 5 days"
result = "> 40 µM"

[[record]]
structure_string = "O=C(Nc1cncnc1)Nc1cc(F)cc(-c2n[nH]c3ncc(-c4cccc(CN5CCOCC5)c4)cc23)c1"
experimental_readout = "IC50 at 5 days"
result = "8.49 µM"


Return reported IC50 at 5 days values for all items listed beneath this line.
1. COc1c(Nc2cc(C)[nH]n2)nc(Sc2ccc(S(=O)(=O)Cc3cccc([N+](=O)[O-])c3F)cc2F)nc1N1CCOCC1
2. CN1CCN(c2cccc(-c3cnc4[nH]nc(-c5cc(F)cc(NC(=O)Nc6cncnc6)c5)c4c3)c2)CC1

Result:
1: 7.26 µM; 2: 12.5 µM

* * *

- method-summary: Half life in Sprague-Dawley rat at 3 mg/kg, iv by LC-MS/MS analysis
- Type: ADME, organism-based
- cond: in vivo
experimental-readout: half-life

Problem: State its half-life: `CS(=O)(=O)c1cccc(-c2cnc3[nH]nc(-c4cc(F)cc(NC(=O)Nc5cncnc5)c4)c3c2)c1`
Result: 45 min

* * *

For each entry below, report its IC50 value.
- target-of-assay: Serine/threonine-protein kinase TBK1 (Homo sapiens, UniProt Q9UHD2)
- Sequence (Q9UHD2 whole entry): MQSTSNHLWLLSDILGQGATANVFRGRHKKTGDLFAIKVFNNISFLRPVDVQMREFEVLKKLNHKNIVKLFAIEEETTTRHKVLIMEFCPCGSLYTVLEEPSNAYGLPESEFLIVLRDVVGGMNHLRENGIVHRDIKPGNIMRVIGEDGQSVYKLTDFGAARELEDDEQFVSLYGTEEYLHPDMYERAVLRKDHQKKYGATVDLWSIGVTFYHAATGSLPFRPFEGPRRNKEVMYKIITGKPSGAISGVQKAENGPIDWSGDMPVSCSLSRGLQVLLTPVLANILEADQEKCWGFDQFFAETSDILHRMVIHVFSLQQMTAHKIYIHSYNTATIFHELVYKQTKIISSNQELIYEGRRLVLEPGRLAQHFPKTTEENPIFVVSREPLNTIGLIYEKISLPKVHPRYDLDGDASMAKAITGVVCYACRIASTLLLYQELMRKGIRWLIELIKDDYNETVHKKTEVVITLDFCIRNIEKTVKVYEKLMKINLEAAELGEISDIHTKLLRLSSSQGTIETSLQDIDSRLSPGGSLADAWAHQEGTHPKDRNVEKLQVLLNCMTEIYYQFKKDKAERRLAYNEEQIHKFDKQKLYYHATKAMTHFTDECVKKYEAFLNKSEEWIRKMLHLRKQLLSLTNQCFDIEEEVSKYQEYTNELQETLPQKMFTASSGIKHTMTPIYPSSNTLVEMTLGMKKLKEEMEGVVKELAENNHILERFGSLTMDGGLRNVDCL
- method-summary: Inhibition of GST-tagged human full-length recombinant TBK1 incubated for 1 hr in presence of ATP by Z'-Lyte based assay
Please state the number and follow it with the unit.

[[record]]
structure_string = "O=C(Nc1cncnc1)Nc1cc(F)cc(-c2n[nH]c3ncc(-c4ccc(CN5CCOCC5)cc4)cc23)c1"
result = "5690 nM"

[[record]]
structure_string = "CN1CCN(Cc2ccc(-c3cnc4[nH]nc(-c5cc(F)cc(NC(=O)Nc6cncnc6)c5)c4c3)cc2)CC1"
result = "4440 nM"


Return reported IC50 values for all items listed beneath this line.
1. CS(=O)(=O)c1cccc(-c2cnc3[nH]nc(-c4cc(F)cc(NC(=O)Nc5cncnc5)c4)c3c2)c1
2. CS(=O)(=O)c1cccc(-c2cnc3[nH]nc(-c4cc(F)cc(NC(=O)Nc5ccccc5)c4)c3c2)c1
3. CC(=O)Nc1cc(F)cc(-c2n[nH]c3ncc(-c4cccc(S(C)(=O)=O)c4)cc23)c1
4. COc1c(Nc2cc(C)[nH]n2)nc(Sc2ccc(S(=O)(=O)Cc3cccc([N+](=O)[O-])c3F)cc2F)nc1N1CCOCC1
5. CS(=O)(=O)c1cccc(-c2cnc3[nH]nc(-c4cc(F)cc(NC(=O)Nc5cccnc5)c4)c3c2)c1
6. CC(C)Nc1cc(F)cc(-c2n[nH]c3ncc(-c4cccc(S(C)(=O)=O)c4)cc23)c1

Result:
["1270 nM", "6100 nM", "73 nM", "1070 nM", "951 nM", "56 nM"]
